Field: ISH224-N1C0 Sialyltransferase activity Relative activity (%). Provide a value for each of the compounds that follow.
- Tested on: ISH224-N1C0 recombinant β-galactoside-α2,3-sialyltransferase
- method.description: Acceptor substrate specificity of recombinant β-galactoside-α2,3-sialyltransferase (mono-, di-, trisaccharides)
- Format: biochemical, Photobacterium sp.
- condition.summary: Table 17: activity toward lactose set to 100; 30° C., 0.5 minutes or 2 minutes
- Method: Cell homogenates prepared from E. coli cells introduced with the third clone of ISH467-N2C0, the first clone of ISH224-N1C0 and the first clone of FAJ-N1C0 were each purified by ion exchange chromatography and hydroxyapatite chromatography to give an electrophoretically single band. […] In the manner described above, the radioactivity of NeuAc transferred to each glycosyl acceptor substrate was measured to calculate the amount of transferred sialic acid.
Answers are plain numbers, in %.

As a guide, the following entries are already answered.
• CC(=O)N[C@H]1C(O)O[C@H](CO)[C@@H](O[C@@H]2O[C@H](CO)[C@H](O)[C@H](O)[C@H]2O)[C@@H]1O (stereo partly shown) = 96
• CO[C@H]1O[C@H](CO)[C@@H](O)[C@H](O)[C@H]1O [Methylαglucopyranoside, methyl-α-D-glucopyranoside] = 68

Report ISH224-N1C0 Sialyltransferase activity Relative activity (%) for each item below.
1. CC(=O)N[C@H]1C(O)O[C@H](CO)[C@@H](O)[C@@H]1O (stereo partly shown)
2. CO[C@H]1O[C@H](CO)[C@H](O)[C@H](O)[C@H]1O [Methylαgalactopyranoside, methyl-α-D-galactopyranoside]
3. CC(=O)N[C@H]1C(O)O[C@H](CO)[C@H](O)[C@@H]1O (stereo partly shown)
4. CO[C@H]1O[C@H](CO)[C@@H](O)[C@H](O)[C@@H]1O [Methylαmannopyranoside, methyl-α-D-mannopyranoside]
5. CO[C@@H]1O[C@H](CO)[C@@H](O)[C@H](O)[C@H]1O [Methylβglucopyranoside, methyl-β-D-glucopyranoside]
6. CO[C@@H]1O[C@H](CO)[C@@H](O)[C@H](O)[C@@H]1O [Methylβmannopyranoside, methyl-β-D-mannopyranoside]

stdout:
50
823
76
108
26
100

====

Field: ISH467-N2C0 Sialyltransferase activity Relative activity (%). Provide a value for each of the compounds that follow.
- Tested on: ISH467-N2C0 recombinant β-galactoside-α2,3-sialyltransferase
- method.description: Acceptor substrate specificity of recombinant β-galactoside-α2,3-sialyltransferase (mono-, di-, trisaccharides)
- Type: biochemical, Photobacterium phosphoreum
- condition.summary: Table 17: activity toward lactose set to 100; 30° C., 0.5 minutes or 2 minutes
Answers are plain numbers, in %.

As a guide, the following entries are already answered.
- CO[C@H]1O[C@H](CO)[C@@H](O)[C@H](O)[C@@H]1O [Methylαmannopyranoside, methyl-α-D-mannopyranoside]: 60
- OC[C@H]1O[C@@H](O[C@H]2[C@H](O)[C@@H](O)C(O)O[C@@H]2CO)[C@H](O)[C@@H](O)[C@H]1O (stereo partly shown): 100
- CO[C@H]1O[C@H](CO)[C@@H](O)[C@H](O)[C@H]1O [Methylαglucopyranoside, methyl-α-D-glucopyranoside]: 48

// next entry
So for CO[C@@H]1O[C@H](C)[C@H](O)[C@H](O)[C@H]1O [Methylβfucopyranoside, methyl-β-D-fucopyranoside] , the logged ISH467-N2C0 Sialyltransferase activity Relative activity (%) turned out to be 42

====

- System: FAJ-N1C0 recombinant β-galactoside-α2,3-sialyltransferase
- method.description: Acceptor substrate specificity of recombinant β-galactoside-α2,3-sialyltransferase (mono-, disaccharides)
- Assay type: biochemical, Vibrio sp.
- Parameters: tested at 42 mM
- condition.summary: Table 16: activity toward lactose set to 100; 20° C., 14 hours
Field: FAJ-N1C0 Sialyltransferase activity Relative activity (%). Provide a value for each of the compounds that follow.
One number for each entry, in %.

* CC(=O)N[C@H]1C(O)O[C@H](CO)[C@@H](O[C@@H]2O[C@H](CO)[C@H](O)[C@H](O)[C@H]2O)[C@@H]1O (stereo partly drawn) [Lactosamine, N-acetyllactosamine] | 127
* CO[C@@H]1O[C@H](CO)[C@@H](O)[C@H](O[C@@H]2O[C@H](CO)[C@H](O)[C@H](O)[C@H]2O)[C@H]1NC(C)=O | 124
* OC[C@H]1O[C@@H](O[C@H]2[C@H](O)[C@@H](O)C(O)O[C@@H]2CO)[C@H](O)[C@@H](O)[C@H]1O (stereo partly drawn) [Lactose, lactose] | 100
* CO[C@H]1O[C@H](CO)[C@@H](O)[C@H](O)[C@@H]1O [Methylαmannopyranoside, methyl-α-D-mannopyranoside] | 57
* CO[C@H]1O[C@H](CO)[C@@H](O)[C@H](O)[C@H]1O [Methylαglucopyranoside, methyl-α-D-glucopyranoside] | 62

// next entry
So for CO[C@@H]1O[C@H](CO)[C@H](O)[C@H](O)[C@H]1O [Methylβgalactopyranoside, methyl-β-D-galactopyranoside] , the logged FAJ-N1C0 Sialyltransferase activity Relative activity (%) turned out to be 114

====

Field: ISH467-N2C0 Sialyltransferase activity. Provide a value for each of the compounds that follow.
- Test system: ISH467-N2C0 recombinant β-galactoside-α2,3-sialyltransferase
- method.description: Acceptor substrate specificity of recombinant β-galactoside-α2,3-sialyltransferase (mono-, di-, trisaccharides)
- Assay type: biochemical, Photobacterium phosphoreum
- condition.summary: Table 17: 1 μmol acceptor, pH 5.0, 2.3 mU per reaction, 30° C., 0.5 minutes or 2 minutes
Give bare numbers, in nmol/min.

As a guide, the following entries are already answered.
* CO[C@H]1O[C@H](CO)[C@@H](O)[C@H](O)[C@@H]1O [Methylαmannopyranoside, methyl-α-D-mannopyranoside] | 1.38
* CO[C@@H]1O[C@H](CO)[C@H](O)[C@H](O)[C@H]1O [Methylβgalactopyranoside, methyl-β-D-galactopyranoside] | 5.77
* CO[C@@H]1O[C@H](C)[C@H](O)[C@H](O)[C@H]1O [Methylβfucopyranoside, methyl-β-D-fucopyranoside] | 0.97
* CC(=O)N[C@H]1C(O)O[C@H](CO)[C@H](O)[C@@H]1O (stereo partly shown) [N-Acetylgalactosamine, N-acetylgalactosamine] | 0.99

Report ISH467-N2C0 Sialyltransferase activity for each item below.
1. OC[C@H]1O[C@@H](O[C@H]2[C@H](O)[C@@H](O)C(O)O[C@@H]2CO)[C@H](O)[C@@H](O)[C@H]1O (stereo partly shown) [Lactose, lactose]
2. CC(=O)N[C@H]1C(O)O[C@H](CO)[C@@H](O[C@@H]2O[C@H](CO)[C@H](O)[C@H](O)[C@H]2O)[C@@H]1O (stereo partly shown) [Lactosamine, N-acetyllactosamine]
3. CO[C@H]1O[C@H](CO)[C@H](O)[C@H](O)[C@H]1O [Methylαgalactopyranoside, methyl-α-D-galactopyranoside]
4. CC(=O)N[C@H]1C(O)O[C@H](CO)[C@@H](O)[C@@H]1O (stereo partly shown) [N-Acetylglucosamine, N-acetylglucosamine]
5. CO[C@@H]1O[C@H](CO)[C@@H](O)[C@H](O[C@@H]2O[C@H](CO)[C@H](O)[C@H](O)[C@H]2O)[C@H]1NC(C)=O

stdout:
1. 2.29
2. 2.36
3. 10.38
4. 0.91
5. 2.95

====

- System: ISH224-N1C0 recombinant β-galactoside-α2,3-sialyltransferase
- method.description: Acceptor substrate specificity of recombinant β-galactoside-α2,3-sialyltransferase (mono-, di-, trisaccharides)
- Type: biochemical, Photobacterium sp.
- condition.summary: Table 16: 1 μmol acceptor, pH 5.0, about 2.5 mU enzyme, 20° C., 14 hours
So basically: ISH224-N1C0 Sialyltransferase activity at 6 nmol/min or higher? That is Condition met. Lower than 6 nmol/min? That is Condition not met.

Example entries begin here.
• CO[C@@H]1O[C@H](CO)[C@@H](O)[C@H](O)[C@H]1O [Methylβglucopyranoside, methyl-β-D-glucopyranoside] = Condition not met
• CC(=O)N[C@H]1C(O)O[C@H](CO)[C@@H](O)[C@@H]1O (stereo partly shown) = Condition not met
• CO[C@@H]1O[C@H](CO)[C@@H](O)[C@H](O[C@@H]2O[C@H](CO)[C@H](O)[C@H](O)[C@H]2O)[C@H]1NC(C)=O = Condition met
• OC[C@H]1O[C@@H](O[C@H]2[C@H](O)[C@@H](O)C(O)O[C@@H]2CO)[C@H](O)[C@@H](O)[C@H]1O (stereo partly shown) = Condition met
• CO[C@@H]1O[C@H](CO)[C@H](O)[C@H](O)[C@H]1O [Methylβgalactopyranoside, methyl-β-D-galactopyranoside] = Condition met

stdin: Does the compound CC(=O)N[C@H]1C(O)O[C@H](CO)[C@H](O)[C@@H]1O (stereo partly shown) have recorded ISH224-N1C0 Sialyltransferase activity that is 6 nmol/min or more?
stdout: Condition not met

stdin: Does the compound CC(=O)N[C@H]1C(O)O[C@H](CO)[C@@H](O[C@@H]2O[C@H](CO)[C@H](O)[C@H](O)[C@H]2O)[C@@H]1O (stereo partly shown) have recorded ISH224-N1C0 Sialyltransferase activity that is 6 nmol/min or more?
stdout: Condition met

stdin: Does the compound CO[C@H]1O[C@H](CO)[C@@H](O)[C@H](O)[C@H]1O [Methylαglucopyranoside, methyl-α-D-glucopyranoside] have recorded ISH224-N1C0 Sialyltransferase activity that is 6 nmol/min or more?
stdout: Condition not met

stdin: Does the compound CO[C@H]1O[C@H](CO)[C@H](O)[C@H](O)[C@H]1O [Methylαgalactopyranoside, methyl-α-D-galactopyranoside] have recorded ISH224-N1C0 Sialyltransferase activity that is 6 nmol/min or more?
stdout: Condition met

stdin: Does the compound CO[C@H]1O[C@H](CO)[C@@H](O)[C@H](O)[C@@H]1O [Methylαmannopyranoside, methyl-α-D-mannopyranoside] have recorded ISH224-N1C0 Sialyltransferase activity that is 6 nmol/min or more?
stdout: Condition not met
